Record form. Attribute: koff. Fill in for each entry.
TARGET: T1, AAV2 (UniProt P03135 1-735)
T1 construct: also called adeno-associated virus serotype 2
T1 sequence (P03135 whole entry): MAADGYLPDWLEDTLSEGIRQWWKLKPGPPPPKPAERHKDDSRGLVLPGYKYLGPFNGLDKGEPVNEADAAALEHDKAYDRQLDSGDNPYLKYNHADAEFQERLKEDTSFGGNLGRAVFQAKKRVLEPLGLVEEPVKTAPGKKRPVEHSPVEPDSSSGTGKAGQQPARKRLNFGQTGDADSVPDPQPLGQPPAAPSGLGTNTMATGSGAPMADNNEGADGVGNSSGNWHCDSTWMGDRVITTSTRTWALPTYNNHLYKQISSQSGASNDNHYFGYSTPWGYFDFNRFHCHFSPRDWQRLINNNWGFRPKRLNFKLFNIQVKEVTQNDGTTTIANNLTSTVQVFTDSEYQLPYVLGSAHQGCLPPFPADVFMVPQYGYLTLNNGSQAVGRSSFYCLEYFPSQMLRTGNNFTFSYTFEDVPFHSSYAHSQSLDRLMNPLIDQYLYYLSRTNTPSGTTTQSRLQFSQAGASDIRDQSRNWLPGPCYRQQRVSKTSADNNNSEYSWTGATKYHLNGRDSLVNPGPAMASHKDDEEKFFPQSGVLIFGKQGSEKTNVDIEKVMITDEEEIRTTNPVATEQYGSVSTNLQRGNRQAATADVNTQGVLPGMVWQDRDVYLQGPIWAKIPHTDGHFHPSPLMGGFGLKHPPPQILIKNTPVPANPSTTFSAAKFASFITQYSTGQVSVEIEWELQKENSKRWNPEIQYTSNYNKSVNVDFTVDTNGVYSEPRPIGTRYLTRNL
ASSAY_PROCEDURE: SPR, AAV on CM5 chip;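 further: surface plasmon resonance with AAV amine-coupled to the chip as ligand, nanobodies injected as analyte over a concentration series, rate constants and affinity fitted from binding curves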
Supply the numeric figure in s⁻¹, leaving out any unit text.

Query :: Can you share its koff? I mean this binder: A4-021 (VHH) VHH: VQLQESGGGLVQAGGSLRLSCAASGSTFSINTMGWYRQAPGKQRELVATITRGGNTNYADSVKGRFTISRDNAKNTVYLQMNSLRPEDTAVYYCHVDEVRQSSWTTSNIWGQGTQVTVSS
Result :: 4.37e-05

Query :: Similarly, A4-032 (VHH) VHH: VQLQESGGGLVQPGGSLRLSCVASGSSFSINTMGWYRQAPGKQRELVATVTRDGSTNYANSVKGRFTISRDNAKNTVYLQMNSLRPEDTAVYYCHVDEVRQSSWTTSNLWGQGTQVTVSS ?
Result :: 0.0004

Query :: Try the binder A4-011 (VHH) VHH: VQLQESGGGLVQAGGSLRLSCAASGSIFSINSMGWYRQAPGKQRELVATVTRGGNTNYAGSVKGRFTISRDNAKNTVYLQMNSLRPEDTAVYYCHVDEVRESSWTTSNLWGQGTQVTVSS
Result :: 0.0462

Query :: Another binder to look at: A4-038 (VHH) VHH: VQLQESGGGLVQPGGSLRLSCAASGSHFSINTMGWYRQAPGKQRELVATVTRGGSTNYANSVKGRFTISRDNAKNTVYLQMNSLRPEDTAVYYCHLDEVRQSSWTTSNLWGQGTQVTVSS
Result :: 0.00014

Query :: Could you do the same for A4-044 (VHH) VHH: VQLQESGGGLVQPGGSLRLSCAASGSSFSINTMGWYRQAPGKQRELVATVTRGGVTNYADSVKGRFTISRDNAKNTVYLQMNSLRPEDTAVYYCHVDEVRQSSWTTSNLWGQGTQVTVSS , please?
Result :: 0.00069

Query :: Try A4-048 (VHH) VHH: VQLQESGGGLVQPGGSLRLSCAASGSMFSINTMGWYRQAPGKQRELVATVTRGGNTNYAGSVKGRFTISRDNAKNTVYLQMNSLRPEDTAVYYCHVDEVRQSSWTTSNLWGQGTQVTVSS next.
Result :: 0.00137

Query :: Likewise for A4-024 (VHH) VHH: VQLQESGGGLVQPGGSLRLSCAASGSNFRINTMGWYRQAPGKQRELVATVTRGGSTNYADSVKGRFTISRDNPKNTVYLQMNSLRPEDTAVYYCHVDEVRESSWTTSNLWGQGTQVTVSS ?
Result :: 0.00069

Query :: Next: A4-012 (VHH) VHH: VQLQESGGGAVQAGGSLRLSCAASGSIFSINSMGWYRQAPGKQRELVATVTRGGNTNYAGSVKGRFTISRDNAKNTVYLQMNSLRPEDTAVYYCHVDEVRESSWTTSNLWGQGTQVTVSS
Result :: 0.0554

Query :: A4-046 (VHH) VHH: VQLQESGGGLVQPGGSLRLSCAASGSRFSINTMGWYRQAPGKQRELVATVTRGGSTNYADSVKGRFTISRDNAKNTVYLQMNSLRPEDTAVYYCHVDEVRQSSWTTSNLWGQGTQVTVSS ?
Result :: 0.00725

Query :: Check A4-039 (VHH) VHH: VQLQESGGGLVQPGGSLRLSCAASGSGFSINTMGWYRQAPGKWRELVATVTRGGSTNYAGSVKGRFTISRDNAKNTVYLQMNSLRPEDTAVYYCHIDEVRQSSWTTSNLWGQGTQVTVSS too.
Result :: 0.00015

Query :: Same read-out for A4-034 (VHH) VHH: VQLQESGGGLVQPGGSLRLSCAASGRGFSINTMGWYRQAPGKQRELVAAVTRGGTTNYADSVKGRFTISRDNAKNTVYLQMNSLRPEDTAVYYCHVDEVRQSSWTTSNLWGQGTQVTVSS ?
Result :: 0.00066

Query :: For A4-001 (VHH) VHH: VQLQESGGGLVQPGGSLRLSCAASGRSFSINTMGWYRQAPGKQRELVATVTRGGSTNYAGSVKGRFTISRDNAKNTVYLQMNSLRPEDTAVYYCHIDEVRQSSWTTSNIWGQGTQVTVSS then?
Result :: 6.35e-05
